Values were extracted from patent US20250059171A1.

# TGT: SARS-CoV-2 3CLpro (Severe acute respiratory syndrome coronavirus 2, UniProt P0DTD1)
# MEASUREMENT DESCRIPTION: biochemical
Below is a list of entries, each paired with its recorded pIC50 value.
// scale note: pIC50 = -log10(conc_M); give the bare number

Example entries begin here.
CC(C)C(=O)N[C@H](C(=O)N1CC2(CC2)C[C@H]1C(=O)NN(C[C@@H]1CCNC1=O)C(=O)[C@H](F)Cl)C(C)(C)C : 7.82
O=C1NCC[C@H]1CN(NC(=O)[C@@H]1[C@H]2CCC[C@H]2CN1C(=O)COc1cc(F)cc(F)c1)C(=O)[C@H](F)Cl [Example 89a] : 7.29
CC[C@H](C)[C@H](NC(=O)C(F)(F)F)C(=O)N1C[C@H]2[C@@H]([C@H]1C(=O)NN(C[C@H]1CCCNC1=O)C(=O)[C@H](F)Cl)C2(C)C (single isomer, unassigned) [Example 165b] : 7.70

Param item = `CC(C)(C)[C@H](NC(=O)C12CC(C1)C2)C(=O)N1C[C@H]2[C@@H]([C@H]1C(=O)NN(C[C@@H]1CCNC1=O)C(=O)[C@H](F)Cl)C2(C)C` ; retrieve measured pIC50.
8.10

Moving on to `CCC(C)(C)[C@H](NC(=O)C1(F)CC1)C(=O)N1C[C@H]2[C@@H]([C@H]1C(=O)NN(C[C@@H]1CCNC1=O)C(=O)[C@H](F)Cl)C2(C)C`
8.10

Moving on to `CC(C)(C)[C@H](NC(=O)[C@@H]1CC1(F)F)C(=O)N1C[C@@H]2CCC[C@@H]2[C@H]1C(=O)NN(C[C@@H]1CCCNC1=O)C(=O)[C@@H](F)Cl`
7.96

Moving on to `CC1(C)C[C@@H](C(=O)NN(C[C@@H]2CCNC2=O)C(=O)[C@H](F)Cl)N(C(=O)[C@@H](NC(=O)C2CC2)C(C)(C)C)C1`
7.92

Moving on to `CC[C@@H](C)[C@H](NC(=O)[C@H](C)F)C(=O)N1C[C@H]2[C@@H]([C@H]1C(=O)NN(C[C@@H]1CCNC1=O)C(=O)[C@H](F)Cl)C2(C)C`
7.96

Moving on to `CC[C@H](C)[C@H](NC(=O)C(C)C)C(=O)N1C[C@@H]2CCC[C@@H]2[C@H]1C(=O)NN(C[C@@H]1CCNC1=O)C(=O)[C@H](F)Cl`
8.15

Moving on to `CCC(C)(C)[C@H](NC(=O)C(F)F)C(=O)N1C[C@@H]2CCC[C@@H]2[C@H]1C(=O)NN(C[C@@H]1CCCNC1=O)C(=O)[C@H](F)Cl`
8.00

Moving on to `CCC(CC)[C@H](NC(=O)C(F)F)C(=O)N1C[C@H]2[C@@H]([C@H]1C(=O)NN(C[C@@H]1CCNC1=O)C(=O)[C@H](F)Cl)C2(C)C`
8.00

Moving on to `CCC(CC)[C@H](NC(=O)C(F)F)C(=O)N1C[C@H]2[C@@H]([C@H]1C(=O)NN(C[C@@H]1CCCNC1=O)C(=O)[C@H](F)Cl)C2(C)C`
7.89
